- tested.on: Genome polyprotein (Poliovirus type 1 (strain Mahoney)) (UniProt P03300)
- Sequence (P03300 1749-2209 limits assumed): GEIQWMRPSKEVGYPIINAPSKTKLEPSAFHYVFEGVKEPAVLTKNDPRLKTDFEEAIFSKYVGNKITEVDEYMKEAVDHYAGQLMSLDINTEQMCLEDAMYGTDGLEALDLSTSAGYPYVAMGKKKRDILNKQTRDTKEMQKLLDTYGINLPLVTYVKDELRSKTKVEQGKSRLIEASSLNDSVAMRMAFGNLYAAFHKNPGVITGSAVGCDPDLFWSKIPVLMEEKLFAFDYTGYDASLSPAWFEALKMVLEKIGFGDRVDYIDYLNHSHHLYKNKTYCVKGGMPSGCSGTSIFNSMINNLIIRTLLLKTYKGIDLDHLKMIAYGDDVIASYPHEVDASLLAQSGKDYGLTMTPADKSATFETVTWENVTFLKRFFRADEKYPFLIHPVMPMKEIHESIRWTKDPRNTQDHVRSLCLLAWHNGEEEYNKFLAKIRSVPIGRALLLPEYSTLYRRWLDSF
- run.description: poliovirus RdRp elongation inhibitors, primary screen, biochemical, fluorescence polarization, total intensity (AID 588519)
- condition: poliovirus polymerase elongation, compound at 16.7 µg/mL
Screen size: about 150,000 compounds; about 1,000 (0.67%) were called active. Rule as the data show it: active = % elongation below about 90%; inactive = the rest, inconclusive results apart. For the sample, actives were picked, then their nearest neighbours and some compounds at random.
Labels: YES (active), NO (inactive)

compound	label
O=C(CSc1nnnn1-c1ccccc1)NCCC12CC3CC(CC(C3)C1)C2	NO
CC(=O)Nc1ccc(NC(=O)C(C)OC(=O)Cc2c[nH]c3ccccc23)cc1 (centres undefined)	NO
CCOc1ccc(NC(=O)c2c(NC(=O)Cc3ccccc3)sc3c2CCC(C)C3)cc1 (centres undefined)	YES
COc1ccc2c(c1)Cc1sc(NC(=O)c3ccccc3Br)nc1-2	YES
CCOC(=O)C(N)Cc1c[nH]c2ccccc12 (centres undefined)	NO
O=C1CCC/C1=C1\SCC(=O)N1c1ccccc1	NO
O=C1c2ccccc2C(=O)N1CC1OCc2ccccc2CO1	NO
CSc1nc(=O)n(Cc2ccccn2)c2c1CCC2	NO
Cc1ccc(NC(=O)COc2ccccc2O)cc1C	NO
O=C(ON1C(=O)CCC1=O)c1ccccc1	YES
CCOC(=O)c1cnc2c(C)cc(C)cc2c1Nc1ccc(N2CCOCC2)cc1	NO
COc1cccc(NC(=O)CN(C)CC(=O)Nc2ccc3c(c2)CCC3)c1	NO
COc1ccc(S(=O)(=O)NCCSc2nnnn2-c2ccccc2)cc1	YES
O=C1S/C(=C/c2cc3c(cc2Cl)OCO3)C(=O)N1c1ccccc1	NO
CCOc1ccccc1CNC(=O)Cn1ncc2c([nH]c3ccccc32)c1=O	NO
COc1ccccc1CNC(=O)CS(=O)(=O)c1cccc2nsnc12	NO
CCN(Cc1ccccc1)C(=O)c1cccc(N2C(=O)CCC2=O)c1	NO
CCN(CC(=O)Nc1ccc(S(=O)(=O)N2CCCC2)cc1)CC(=O)Nc1cccc(OC)c1	YES
O=C(CC12CC3CC(CC(C3)C1)C2)Nc1noc2ccccc12	NO
CN=C(Cl)c1cccs1	NO
CCOC(=O)c1cnc2c(C)c(C)ccc2c1NCCCN(C)C	YES
CCOc1ccc(NC(=O)c2c(NC(=O)Cc3ccccc3)sc3c2CCCCC3)cc1	YES
OC(c1nc2ccccc2[nH]1)C(O)C(O)C(O)c1nc2ccccc2[nH]1 (centres undefined)	NO
C=CCn1c(SCC#N)nc2c(c1=O)C1(CCCCC1)Cc1ccccc1-2	NO

###

Below, each entry is listed alongside its reported % elongation.
- tested.on: Genome polyprotein (Poliovirus type 1 (strain Mahoney)) (UniProt P03300)
- run.description: poliovirus RdRp elongation inhibitors, primary screen, biochemical, fluorescence polarization, total intensity (AID 588519)
- condition: poliovirus polymerase elongation, measured here: total intensity read-out, stronger effect = lower value, compound at 16.7 µg/mL
Screen size: about 150,000 compounds; about 1,000 (0.67%) were called active. The sample holds actives, similar compounds and a random draw of the others, so the mix is not that of the screen.

compound	% elongation [%]
O=C(COC(=O)c1cccs1)NCc1cccs1	101
CCOC(=O)c1c(NC(=O)Cc2coc3ccc(CC)cc23)sc2c1CCC2	25
COc1cc(OC)c(N(C)C(=O)c2ccc3c(=O)n4c(nc3c2)CCCCC4)cc1Cl	109
O=C(Nc1cccc(Cl)c1)N1CCC(n2nnc3cc(F)ccc32)CC1	100
Cc1ccc(CSc2oc(-c3cccs3)nc2S(=O)(=O)c2ccc(C)cc2)cc1	109
CC(C)c1n[nH]c(=S)n1N	68
CCN(CC)CCN1COc2c(cc(Cl)c3cccnc23)C1	80
N#CC1=C2Sc3ccccc3N2CC1=O	165
O=C(Nc1ccc(Cl)cc1Cl)C1CC(=O)N(C2CCCCC2)C1 (centres undefined)	102
CCOc1ccc(-c2ccc(NS(=O)(=O)c3ccccc3)cc2)nn1	104
CCOC(=O)C(N)Cc1c[nH]c2ccccc12 (centres undefined)	101
C#CCN1CCS(=O)(=O)CC1	103
CCCCC(=O)Nc1sc2c(c1C#N)CCCC2	100
CSC(=S)Nc1ccc(C)cc1	104
Cc1cc(C)c(C(=O)COC(=O)c2ccc(N(C)C)cc2)c(C)c1	97
CC1CC(C)CN(C(=O)C(C)Sc2nnnn2-c2ccc(Cl)cc2)C1 (centres undefined)	99
COC(=O)c1sc(C)cc1OC(=O)c1ccc(OC)cc1	100
Cc1c(C(=O)NC(C)CCc2ccccc2)oc2c1C(=O)CCC2 (centres undefined)	102
Clc1nc(Nc2ccccc2)sc1/C=N/N1CCOCC1	195

###

- tested.on: Genome polyprotein (Poliovirus type 1 (strain Mahoney))
- run.description: poliovirus RdRp elongation inhibitors, primary screen, biochemical, fluorescence polarization, total intensity (AID 588519)
- condition: poliovirus polymerase elongation, measured here: FP z-score, stronger effect = lower value
Screen size: about 150,000 compounds; about 1,000 (0.67%) were called active. The sample holds actives, similar compounds and a random draw of the others, so the mix is not that of the screen.
Would you mind sorting the entries by z-score according to these classes? lo = under -0.5, mid = from -0.5 up to 0.3, hi = 0.3 and over

compound	label
CCN(CC)C(=O)C1Sc2nnc(-c3ccccc3)n2NC1c1ccccc1 (configuration not stated)	mid
CSc1nc(=O)n(Cc2ccccn2)c2c1CCC2	mid
CCOC(=O)c1c(C)c(-c2ccccc2)n(CC(=O)N2CCN(c3ccccn3)CC2)c1C	lo
CCn1c(=O)cc(O)c2ccccc21	hi
O=C(CSC(=S)N1CCCC1)Nc1ccccc1OC(F)F	hi
O=c1c(Cl)c(Cl)cnn1-c1nc2ccccc2[nH]1	lo
CCN(CC)c1nc(C#N)nc(OC)n1	lo
COC(=O)C1=CN(CCc2ccccc2)C=C(C(=O)OC)C1C(=O)OC	hi
Cc1cc(N2CCNCC2)nc(C)n1	mid
COc1cccc(NC(=O)CN(C)CC(=O)Nc2ccc3c(c2)CCC3)c1	mid

// data source = PubChem BioAssay AID588519
